experiment: Oral bioavailability in cynomolgus monkey; type: ADME, organism-based, Macaca fascicularis; conditions: in vivo
readout: bioavailability (%)
Number only, in %; omit the unit.

Prompt line: Please supply the value of reported bioavailability for the item `O=C(O)CN(CC(=O)N[C@@H](Cc1ccc(OCc2c(Cl)cccc2Cl)cc1)C(=O)O)S(=O)(=O)c1ccccc1`
Response line: 26.9

###

test: Cmax in cynomolgus monkey by po administration; format: ADME, organism-based; parameters: route oral; conditions: cercopithecidae, in vivo
readout: Cmax (ng/mL)
Number only, in ng/mL; omit the unit.

Prompt line: Please supply the value of reported Cmax for the item `O=C(O)CN(CC(=O)N[C@@H](Cc1ccc(OCc2c(Cl)cccc2Cl)cc1)C(=O)O)S(=O)(=O)c1ccccc1`
Response line: 101

###

test: Plasma clearance in cynomolgus monkey; type: ADME, organism-based; conditions: cercopithecidae
readout: clearance (mL/min/kg)
Number only, in mL/min/kg; omit the unit.

Prompt line: Please supply the value of reported clearance for the item `O=C(O)CN(CC(=O)N[C@@H](Cc1ccc(OCc2c(Cl)cccc2Cl)cc1)C(=O)O)S(=O)(=O)c1ccccc1`
Response line: 58.8

Taken from ChEMBL document CHEMBL1146634.
